assay.target: G-protein coupled receptor 151 (Homo sapiens) (UniProt Q8TDV0)
Sequence (Q8TDV0 whole entry, looked up): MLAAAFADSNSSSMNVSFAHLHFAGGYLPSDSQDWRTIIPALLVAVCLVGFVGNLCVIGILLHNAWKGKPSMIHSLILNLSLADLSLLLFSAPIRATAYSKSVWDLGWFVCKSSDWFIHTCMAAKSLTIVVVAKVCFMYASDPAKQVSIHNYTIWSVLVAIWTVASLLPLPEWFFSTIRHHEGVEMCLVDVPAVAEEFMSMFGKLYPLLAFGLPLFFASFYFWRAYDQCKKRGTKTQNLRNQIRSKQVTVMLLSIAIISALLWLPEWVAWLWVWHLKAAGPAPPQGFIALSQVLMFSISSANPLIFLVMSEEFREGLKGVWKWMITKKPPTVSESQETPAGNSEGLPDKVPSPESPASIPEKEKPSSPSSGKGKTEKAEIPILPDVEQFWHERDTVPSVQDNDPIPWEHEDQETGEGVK
assay.info: activators of human GPR151, primary screen, cell-based, PathHunter beta-arrestin, luminescence (AID 1508602);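 also: 0% = median of compound wells and 100% = cells with positive control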
experimental.parameters: PathHunter beta-arrestin GPR151 cells, at 11.2 µM, hits give high values
Among all 650,000 compounds or so, about 6,800 (1%) were called active. The list comes from a sample in which actives are over-represented; it also holds close analogues and randomly drawn compounds.
For each of the compounds below, state its activation.
Write the answer as a number in %, unit excluded.

Prompt: Report activation for Cc1ccccc1-n1nc2c(c1NC(=O)C1CC1)CSC2 please.
Completion: 1.82

Prompt: Report activation for COc1ccc(C2=NN(C(=O)c3ccccc3Cl)C(c3cccc(OC)c3OC)C2)cc1OC (stereo not drawn) please.
Completion: -0.321

Prompt: Report activation for COCCNc1nc2nonc2nc1N1CCC(N2C[C@@H](C)O[C@@H](C)C2)CC1 please.
Completion: -0.822

###

assay.target: G-protein coupled receptor 151 (Homo sapiens)
assay.info: activators of human GPR151, primary screen, cell-based, PathHunter beta-arrestin, luminescence (AID 1508602);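 also: 0% = median of compound wells and 100% = cells with positive control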
experimental.parameters: PathHunter beta-arrestin GPR151 cells, at 11.2 µM, hits give high values
In all, about 650,000 compounds went through this assay and about 6,800 (1%) were called active. Only a selection was taken, and actives are over-represented in it overall.
metric.name: activation (%)
Write the answer as a number in %, unit excluded.

Prompt: Can you look up activation on G-protein coupled receptor 151 (Homo sapiens) for O=C(C1CCN(S(=O)(=O)Cc2ccccc2)CC1)N1CCCc2ccccc21 ?
Completion: 8.15

Prompt: Can you look up activation on G-protein coupled receptor 151 (Homo sapiens) for CCC(C)C(=O)N1CCc2c(C(=O)NCc3ccsc3)c(OC)cc(=O)n2CC1 (configuration not stated) ?
Completion: 0.148

Prompt: Can you look up activation on G-protein coupled receptor 151 (Homo sapiens) for O=C(Cc1ccc([N+](=O)[O-])cc1)NCCC1=CCCCC1 ?
Completion: 0.571

Prompt: Can you look up activation on G-protein coupled receptor 151 (Homo sapiens) for COc1ccc(Cn2ccnc2SCC(=O)NCc2ccco2)cc1 ?
Completion: 0.251

Prompt: Can you look up activation on G-protein coupled receptor 151 (Homo sapiens) for CC(C)(C)c1ccc(C(=O)NCCC(=O)NCCc2ccccc2)cc1 ?
Completion: 0.46

Prompt: Can you look up activation on G-protein coupled receptor 151 (Homo sapiens) for CN(CC(=O)Nc1c(F)cccc1F)S(=O)(=O)c1ccc(Cl)cc1 ?
Completion: 0.4

Prompt: Can you look up activation on G-protein coupled receptor 151 (Homo sapiens) for C=CCN(c1ccc(C(=O)Nc2ccc(Br)c(Cl)c2)cc1)S(C)(=O)=O ?
Completion: 0.888

Prompt: Can you look up activation on G-protein coupled receptor 151 (Homo sapiens) for COC(=O)c1c(OCc2cccnc2)cc(=O)n2c1CCN(C(C)CSC)CC2 (configuration not stated) ?
Completion: 0.107

Prompt: Can you look up activation on G-protein coupled receptor 151 (Homo sapiens) for COc1ccc(C2C(C#N)=C(N)Oc3c2c(C)nn3-c2ccccc2)cc1 (configuration not stated) ?
Completion: 8.46

Prompt: Can you look up activation on G-protein coupled receptor 151 (Homo sapiens) for CC1CCN(CCCNc2nc(=S)[nH]c3ccccc23)CC1 ?
Completion: -3.01

Prompt: Can you look up activation on G-protein coupled receptor 151 (Homo sapiens) for COc1ccc(-c2csc3ncc(C(=O)N(C)C(C)C)c(=O)n23)cc1 ?
Completion: 1.24

Prompt: Can you look up activation on G-protein coupled receptor 151 (Homo sapiens) for O=c1c2c3c(sc2nc(SCc2cccc(Br)c2)n1-c1ccccc1)CCC3 ?
Completion: 0.0499
